The entries below are paired with their reported glutamate uptake change.
experimental-details: enhancers of glutamate uptake in motor neurons, MN-1 cell line (AID 1612);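 further: tested at 1 µM final; 0% = mean of DMSO vehicle wells on each plate; positive means more glutamate uptake than control and negative means less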
run-parameters: MN-1 motor neuron cells, stronger effect = higher value
Expressed in %, but write only the number.

Before answering, review these 5 worked examples.
>>> reported_value("CC(=O)Nc1cc([As](=O)(O)O)ccc1O")
-5.59
>>> reported_value("C=CCN1CC[C@]23c4c5ccc(O)c4OC2C(=O)CC[C@@]3(O)[C@H]1C5 (stereo partly specified)")
-6.41
>>> reported_value("COc1ccc2c3c([nH]c2c1)C(C)=NCC3")
48
>>> reported_value("O=[N+]([O-])c1cc(O)c(O)c([N+](=O)[O-])c1")
-10
>>> reported_value("CC(=O)C1=C(O)C2C3c4c[nH]c5cccc(c45)CC3C(C)(C)N2C1=O (stereo unspecified)")
28.8

## Task Form field: reported glutamate uptake change of C[C@@H]1CC[C@H]2[C@@H](C)C(=O)O[C@@H]3OC4(C)CC[C@@H]1[C@]32OO4
## Result 20.6

## Task Form field: reported glutamate uptake change of O=c1ccc2cc(O[C@H]3O[C@H](CO)[C@@H](O)[C@H](O)[C@H]3O)c(O)cc2o1
## Result 21.7

## Task Form field: reported glutamate uptake change of C=CCc1ccc2c(c1)OCO2
## Result 1.11

## Task Form field: reported glutamate uptake change of CC(=O)OCC1=C(C(=O)O)N2C(=O)[C@@H](NC(=O)CCCC(N)C(=O)O)C2SC1 (stereo partly specified)
## Result 3.72

## Task Form field: reported glutamate uptake change of O=c1oc2ccccc2c(O)c1Cc1c(O)c2ccccc2oc1=O
## Result -38

## Task Form field: reported glutamate uptake change of Clc1ccc(COC(Cn2ccnc2)c2ccc(Cl)cc2Cl)c(Cl)c1 (stereo unspecified)
## Result 5.65

----------
The entries below are paired with their reported viability decrease.
experimental-details: growth inhibition of GSK3B-pretreated HCT116 cells – cell-based, CellTiter-Glo, 0.2 to 20 µM (AID 1117336)
run-parameters: HCT116 viability after GSK3B inhibitor, at 20 µM, stronger effect = higher value
Expressed in %, but write only the number.

Before answering, review these 2 worked examples.
>>> reported_value("CCOP(=S)(OCC)Oc1cc(C)nc(C(C)C)n1")
-71.8
>>> reported_value("C[C@]12Cc3nonc3C[C@@H]1CC[C@@H]1[C@@H]2CC[C@@]2(C)[C@H]1CC[C@]2(C)O")
38.9

## Task Form field: reported viability decrease of O=c1ccc2cc(O[C@@H]3O[C@H](CO)[C@H](O)[C@H](O)[C@H]3O)c(O)cc2o1
## Result -6.5

## Task Form field: reported viability decrease of N[C@@H]1C[C@H]1c1ccccc1
## Result -2.2

## Task Form field: reported viability decrease of C[C@]12CCC(=O)C=C1C=C[C@@H]1[C@H]2CC[C@@]2(C)[C@@H]1CC[C@@]2(O)CCC(=O)O
## Result -15.4

## Task Form field: reported viability decrease of CN(C)C(=O)Oc1cc(OC(=O)N(C)C)cc(C(O)CNC(C)(C)C)c1 (stereo not given)
## Result -5.7

## Task Form field: reported viability decrease of O=c1c(C2CC(c3ccc(-c4ccc(Br)cc4)cc3)Cc3ccccc32)c(O)sc2ccccc12 (stereo not given)
## Result 117

## Task Form field: reported viability decrease of CCN(Cc1ccc(Cl)nc1)/C(=C/[N+](=O)[O-])NC
## Result 3.9

## Task Form field: reported viability decrease of CC(=O)[C@H]1CC[C@H]2[C@@H]3CC[C@H]4C[C@H](O)CC[C@]4(C)[C@H]3C(=O)C[C@]12C
## Result 28

## Task Form field: reported viability decrease of C[C@]12CC[C@H]3[C@@H](CCC4=CC(=O)CC[C@@]43C)[C@@H]1CC[C@@H]2C(=O)O
## Result 3.5
